target-or-test-system: pooled human IgG (human IgG1, 2, 3 and 4)
Overview of recorded Enzyme Activity Endpoint Assay (purified): Fc for various proteins
observed-property: Enzyme Activity Endpoint Assay (purified): Fc (ng/µL)

- protein: "PRT-431 (protein) MSQTEDSESLQRLRDIEDFQAEKKKQNVVYTKWLDGVDVKDHDFRKIVDGNIAYYATPLLNGRGFYDINKDFNRDSDKCAAAVAANMFHYWLDRNRDNVDRFLRQNPEKHGIIELPDGQLKLSDFLNTYESDDGYRDKSKLFDFISENFNGPVWTDKLLDNYINGYAYNYKYGRTIEDPTKNTSKINFFKEVFNEKILTNNHSIRNQNEFSVLLSEALYTGKAIGLSYGPAGLRHSLGHIISVWGADLDADGNVVAIYVTDSDDKKLTIGDERVGLKRYKISTDDEGRLRLTAYEETHNTGGQIRGLWTLDTGKQAWADYFDKTEQTGTDQAEQ"
  measurement: 310
- protein: "PRT-657 (protein) MQITSVWTKGVTPLTPEQFRYNNEDVIHAPYLAHQGWYDITKAFDGKDNLLCGAATAGNMLHWWFDQNKTEIEAYLSKHPEKQKIIFNNQELFDLREAINTKDSQTDSKLFNYFRDKAFPNLSARQLGVMPDLVLDMFINGYYLNVFKTQSTDVNRPYQDKDKRGGIFDAVFTRGDQTTLLTARHDLKNKGLNDISTIIKQELTEGRALALSHTYANVSISHVINLWGADFNAEGNLEAIYVTDSDANASIGMKKYFVGINAHGHVAISAKKIEGENIGAQVLGLFTLSSGKDIWQKLSLEHHHHHH"
  measurement: 250

The reported measurements were obtained from patent US20250027068.
